Intrinsic activity values, listed per item
Biological target: 5-hydroxytryptamine receptor 1B (Homo sapiens, UniProt P28222)
Sequence (P28222 whole entry): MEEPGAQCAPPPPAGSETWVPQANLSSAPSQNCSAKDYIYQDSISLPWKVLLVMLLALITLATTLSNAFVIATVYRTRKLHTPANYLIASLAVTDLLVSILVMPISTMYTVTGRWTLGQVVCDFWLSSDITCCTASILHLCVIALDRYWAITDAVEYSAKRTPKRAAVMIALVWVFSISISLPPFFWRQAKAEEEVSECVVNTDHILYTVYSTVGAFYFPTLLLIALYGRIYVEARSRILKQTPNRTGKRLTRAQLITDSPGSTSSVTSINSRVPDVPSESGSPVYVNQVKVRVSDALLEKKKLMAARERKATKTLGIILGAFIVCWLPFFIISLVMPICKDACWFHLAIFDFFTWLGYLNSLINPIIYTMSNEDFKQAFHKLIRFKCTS
Experiment: Displacement of [3H]5HT from human recombinant 5HT1B receptor relative to control
// return a plain number; no unit text

Record excerpt, results attached:
STRUCTURE_NOTATION	TARGET_SYSTEM	Intrinsic activity
CC(=O)Nc1cccc(CC2CCN(CCOc3cccc4nc(C)ccc34)CC2)c1	5-hydroxytryptamine receptor 1B (Homo sapiens, UniProt P28222)	0.3
CC(=O)N(C)c1cccc(CC2CCN(CCOc3cccc4nc(C)ccc34)CC2)c1	5-hydroxytryptamine receptor 1B (Homo sapiens, UniProt P28222)	0.3
Cc1ccc2c(OCCN3CCC(Cc4cccc(NS(=O)(=O)C(C)C)c4)CC3)cccc2n1	5-hydroxytryptamine receptor 1B (Homo sapiens, UniProt P28222)	0.3
Cc1ccc2c(OCCN3CCC(Cc4cccc(NC(=O)C(C)C)c4)CC3)cccc2n1	5-hydroxytryptamine receptor 1B (Homo sapiens, UniProt P28222)	0.3
Cc1ccc2c(OCCN3CCC(Cc4cccc(NS(C)(=O)=O)c4)CC3)cccc2n1	5-hydroxytryptamine receptor 1B (Homo sapiens, UniProt P28222)	0.3

Record summary for Cc1ccc2c(OCCN3CCC(Cc4cccc(NC(=O)CN(C)C)c4)CC3)cccc2n1 : reported Intrinsic activity = 0.2

Kindly note the recorded Intrinsic activity for CCC(=O)Nc1cccc(CC2CCN(CCOc3cccc4nc(C)ccc34)CC2)c1 , which is 0.3

The recorded Intrinsic activity for CCN(C(C)=O)c1cccc(CC2CCN(CCOc3cccc4nc(C)ccc34)CC2)c1 is 0.3

Data point: CCNC(=O)Nc1cccc(CC2CCN(CCOc3cccc4nc(C)ccc34)CC2)c1 ; Intrinsic activity = 0.2

Summary for this molecule, Cc1ccc2c(OCCN3CCC(Cc4cccc(N(C)S(C)(=O)=O)c4)CC3)cccc2n1 : Intrinsic activity is 0

Record Cc1ccc2c(OCCN3CCC(Cc4cccc(N5CCCC5=O)c4)CC3)cccc2n1 , field Intrinsic activity: 0.4

----------
Recorded below: pKi, system 5-hydroxytryptamine receptor 1A (Homo sapiens).
pKi here: minus log base 10 of the concentration, concentration in moles per litre.

Example cases with answers are listed next.
STRUCTURE_NOTATION	EXPERIMENTAL_ENDPOINT	RESULT_VALUE
CCC(=O)Nc1cccc(CC2CCN(CCOc3cccc4nc(C)ccc34)CC2)c1	pKi	7.60
Cc1ccc2c(OCCN3CCC(Cc4cccc(NS(=O)(=O)C(C)C)c4)CC3)cccc2n1	pKi	8.60
CC(=O)N(C)c1cccc(CN2CCN(CCOc3cccc4nc(C)ccc34)CC2)c1	pKi	6.60
CC(=O)Nc1cccc(CC2CCN(CCOc3cccc4nc(C)ccc34)CC2)c1	pKi	7.60

Now turn to the next compound.
Summary: Cc1ccc2c(OCCN3CCC(Cc4cccc(N5CCCS5(=O)=O)c4)CC3)cccc2n1 , 5-hydroxytryptamine receptor 1A (Homo sapiens), pKi = 8.10

----------
Target: 5-hydroxytryptamine receptor 1D (Homo sapiens)
Sequence (P28221 whole entry): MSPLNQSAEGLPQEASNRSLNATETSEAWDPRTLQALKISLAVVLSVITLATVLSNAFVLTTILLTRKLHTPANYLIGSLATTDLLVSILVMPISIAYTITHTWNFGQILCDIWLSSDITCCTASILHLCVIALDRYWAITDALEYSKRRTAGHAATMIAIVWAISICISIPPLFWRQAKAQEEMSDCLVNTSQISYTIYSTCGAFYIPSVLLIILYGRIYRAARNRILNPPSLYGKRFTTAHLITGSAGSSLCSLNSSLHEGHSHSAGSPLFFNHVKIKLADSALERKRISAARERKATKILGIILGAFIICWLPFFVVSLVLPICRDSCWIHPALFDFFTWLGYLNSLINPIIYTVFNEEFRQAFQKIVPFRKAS
Test: Displacement of [3H]5HT from human recombinant 5HT1D receptor relative to control
EXPERIMENTAL_ENDPOINT: Intrinsic activity
Keep the answer to the number alone.

Record CC(=O)N(C)c1cccc(CC2CCN(CCOc3cccc4nc(C)ccc34)CC2)c1 . Reported Intrinsic activity: 0.6

The compound identified as CCN(C(C)=O)c1cccc(CC2CCN(CCOc3cccc4nc(C)ccc34)CC2)c1 registered its Intrinsic activity at 0.6

Form: compound = Cc1ccc2c(OCCN3CCC(Cc4cccc(N5CCCS5(=O)=O)c4)CC3)cccc2n1 ; Intrinsic activity = 0.4

What the record says about Cc1ccc2c(OCCN3CCC(Cc4cccc(NC(=O)CN(C)C)c4)CC3)cccc2n1 : Intrinsic activity is 0.4

Source listed as ChEMBL document CHEMBL1150291.
